Sourced from patent US12611404B2

Biological target: CCR(9) (Homo sapiens)
Construct: CCR(9)-expressing cells such as T cell line MOLT-4 cells; host or cells: MOLT-4 cells
Assay: serum chemotaxis (migration) assay, MOLT-4 cells in human serum, TECK
Assay type: cell-based
Details: read-out: A2
Method: In vitro cell chemotaxis assays can be performed (but are not limited to this format) using the 96-well microchamber (called ChemoTX™). The ChemoTX™ system is well known to those skilled in the art as a type of chemotactic/cell migration instrument. […] At the end of the incubation, the number of cells that migrated across the membrane into the lower chamber is then quantified. […]
Measured Quantity: IC50

Inquiry: Give the value of IC50 reported for the following: CC(C)Oc1ccc(S(=O)(=O)Nc2cc(C(F)(F)F)nn2-c2cccc3ncccc23)cc1
Reply text: > 2.5 µM

Inquiry: Give a short answer stating reported IC50 for Cc1cc(NS(=O)(=O)c2ccc(OC(C)C)cc2)n(-c2cccc3ncccc23)n1 .
Reply text: 0.501 to 2.5 µM

Inquiry: Tell me its IC50 given CC(C)Oc1ccc(S(=O)(=O)Nc2cc(C(F)(F)F)nn2-c2cccc3cnccc23)cc1 as the entry.
Reply text: 0.501 to 2.5 µM

---

Biological target: CCR(9) (Homo sapiens)
Construct: CCR(9)-expressing cells such as T cell line MOLT-4 cells; host or cells: MOLT-4 cells
Sequence (P51686 1-369): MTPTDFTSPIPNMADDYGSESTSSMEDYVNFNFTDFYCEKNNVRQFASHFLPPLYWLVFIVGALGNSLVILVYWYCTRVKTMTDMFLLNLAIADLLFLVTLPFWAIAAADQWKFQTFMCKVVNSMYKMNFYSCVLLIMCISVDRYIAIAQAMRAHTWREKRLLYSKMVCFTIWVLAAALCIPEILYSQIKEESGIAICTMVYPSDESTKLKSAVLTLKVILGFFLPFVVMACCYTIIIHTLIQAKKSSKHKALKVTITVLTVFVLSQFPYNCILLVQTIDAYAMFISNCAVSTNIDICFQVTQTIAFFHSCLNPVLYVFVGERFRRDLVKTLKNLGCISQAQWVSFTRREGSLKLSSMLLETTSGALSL
Assay: serum chemotaxis (migration) assay, MOLT-4 cells in human serum, TECK
Format: cell-based
Settings: read-out: A2
pIC50: −log10 of the molar value.
Measured pIC50, listed per entry for reference.

These solved cases illustrate the format of a correct answer.
Inquiry: Answer with the recorded pIC50 for the compound listed here: Cc1cc(NS(=O)(=O)c2ccc(C(C)(C)C)cc2)n(-c2ccc(N)c3ncccc23)n1
Reply text: > 6.30

Inquiry: Consider the compound Cc1cc(NS(=O)(=O)c2ccc(C(C)(C)C)cc2)n(-c2cccc3c2ccc[n+]3[O-])n1 . State its measured pIC50.
Reply text: 5.60 to 6.30

Inquiry: Note pIC50 for the compound shown: CC(C)c1ccc(S(=O)(=O)Nc2cc(C(F)F)nn2-c2cccc3ncccc23)cc1
Reply text: 5.60 to 6.30

Inquiry: Identify pIC50 associated with the compound Cc1ccc2c(-n3nc(C)cc3NS(=O)(=O)c3ccc(C(C)(C)C)cc3)cccc2n1
Reply text: > 6.30

Inquiry: Return reported pIC50. Input compound: Cc1cc(NS(=O)(=O)c2ccc(OC(C)C)cc2)n(-c2cccc3cnccc23)n1
Reply text: 5.60 to 6.30

More entries:
Inquiry: For Cc1cc(NS(=O)(=O)c2ccc(C(C)(C)C)c(Cl)c2)n(-c2cccc3ncccc23)n1 , write its pIC50.
Reply text: 5.60 to 6.30

Inquiry: Given the compound Cc1cc(NS(=O)(=O)c2ccc(C(C)(C)C)cc2)n(-c2cncc3ccccc23)n1 , write its reported pIC50.
Reply text: 5.60 to 6.30

Inquiry: For Cc1cc(NS(=O)(=O)c2ccc(C(C)(C)C)cc2)n(-c2ccnc3c(F)cccc23)n1 , write its pIC50.
Reply text: 5.60 to 6.30

Inquiry: For the compound Cc1cc(NS(=O)(=O)c2ccc(C(C)(C)C)cc2)n(-c2ccc(F)c3ncccc23)n1 , report pIC50.
Reply text: 5.60 to 6.30
